- Test system: PfAP2-LT AP2 domain (GST-tagged)
- Experiment Notes: gcPBM binding intensity (ln(normalized median fluorescence intensity)); higher = stronger DNA binding
Over roughly 25,000 sequences, “ln(normalized median fluorescence intensity)” has its median near 8.9; the highest 2% begin near 10. The full list was thinned out, with the highest values kept by preference.
Measured Quantity: gcPBM binding intensity (ln)

INSERT INTO measurements (sequence_chain, readout_value) VALUES
  ('AGCACGCACAGACACACACACATATTTATATTTATA [CACACA_site6291]', 9.72),
  ('CATATACACCAACACACACACACACCCACAAAAAAA [CACACA_site496]', 10.1),
  ('CATACATAGAAACACACACACACACCCACCCACAAA [CACACA_site494]', 10.2),
  ('TAACCATACATACATACACACACACCCACATATATA [CACACA_site8951]', 9.95),
  ('TACACCCACCAACACACACACACACCCAAAAAAAAA [CACACA_site498]', 10.1),
  ('GATACATAGAAACACACACACATACATATATACATA [CACACA_site3438]', 9.92),
  ('CACAAAGACACAAACACACACACACCCACATACATA [CACACA_site452]', 9.86),
  ('AAGCATACATCAAGCACACACACACCCACAGAGACA [CACACA_site4362]', 9.91),
  ('AAGCAAACATATTAATGTACACACACCCACACACAA [XGTACX_site5806]', 9.95);

Hey, just so you know, these numbers are from the supplement of paper PMC11417369.
